Values were extracted from patent US10023570B2.

Catalogue of pIC50 values
target-entity: Kif5b-RET fusion protein in HEK-293 cells (Homo sapiens, UniProt P07949)
Sequence (P07949 29-1114 limits assumed): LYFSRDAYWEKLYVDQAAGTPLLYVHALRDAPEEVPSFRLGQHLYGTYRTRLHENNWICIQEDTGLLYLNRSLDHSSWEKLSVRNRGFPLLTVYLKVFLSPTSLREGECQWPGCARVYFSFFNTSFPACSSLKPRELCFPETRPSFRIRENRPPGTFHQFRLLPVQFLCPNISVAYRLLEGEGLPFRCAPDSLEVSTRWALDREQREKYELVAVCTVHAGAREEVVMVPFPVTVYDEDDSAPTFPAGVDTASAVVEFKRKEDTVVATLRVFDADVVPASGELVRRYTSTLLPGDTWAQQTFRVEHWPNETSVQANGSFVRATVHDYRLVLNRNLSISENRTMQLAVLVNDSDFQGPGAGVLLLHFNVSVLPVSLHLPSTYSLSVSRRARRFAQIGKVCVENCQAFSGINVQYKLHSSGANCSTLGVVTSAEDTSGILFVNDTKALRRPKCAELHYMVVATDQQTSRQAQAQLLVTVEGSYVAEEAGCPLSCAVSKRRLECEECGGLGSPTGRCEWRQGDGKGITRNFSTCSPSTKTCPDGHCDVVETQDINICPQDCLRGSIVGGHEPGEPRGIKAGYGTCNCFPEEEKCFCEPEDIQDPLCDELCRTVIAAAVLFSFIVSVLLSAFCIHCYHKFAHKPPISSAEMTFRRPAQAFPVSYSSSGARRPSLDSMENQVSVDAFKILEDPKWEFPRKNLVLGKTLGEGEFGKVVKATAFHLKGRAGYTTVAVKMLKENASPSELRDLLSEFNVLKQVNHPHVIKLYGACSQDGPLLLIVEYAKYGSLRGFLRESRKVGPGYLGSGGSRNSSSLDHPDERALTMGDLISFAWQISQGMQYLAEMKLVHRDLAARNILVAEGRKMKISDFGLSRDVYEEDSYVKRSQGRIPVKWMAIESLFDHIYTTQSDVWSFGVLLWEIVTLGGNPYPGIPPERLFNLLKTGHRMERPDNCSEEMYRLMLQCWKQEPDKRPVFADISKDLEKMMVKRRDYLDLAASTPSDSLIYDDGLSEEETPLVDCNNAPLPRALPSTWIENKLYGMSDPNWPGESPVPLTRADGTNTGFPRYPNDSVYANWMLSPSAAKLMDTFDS
assay-info: cell-based
details: HEK-293 cells expressing Kif5b-RET, phospho-RET(Tyr1062); read-out: KIF5B-RET pTYR1062 Cell IC50
Counter-ions that a name gives are not always drawn.
A value of pIC50 is the negative decimal logarithm of a concentration given in moles per litre.

Below: 3 compounds and their reported pIC50.
INSERT INTO measurements (compound, reported_property, measured_value) VALUES
  ('Cn1cc(-c2cc(-c3ccc(N4CCNCC4)nc3)c3c(C#N)cnn3c2)cn1 [Example 2, dihydrochloride]', 'pIC50', 6.96),
  ('Cn1cc(-c2cc(-c3ccc(N4CCN(C(=O)CC(C)(C)O)CC4)nc3)c3c(C#N)cnn3c2)cn1 [Example 79]', 'pIC50', 7.50),
  ('CCONC(=O)C1CCN(c2ccc(-c3cc(-c4cnn(C)c4)cn4ncc(C#N)c34)cn2)CC1 [Example 237]', 'pIC50', 7.80);

--- query ---
Any idea what pIC50 was measured for CC(C)C(=O)N[C@H]1CCCN(c2ccc(-c3cc(-c4cnn(C)c4)cn4ncc(C#N)c34)cn2)C1 [Example 225] ?
6.34

---

target-entity: human KDR protein in HEK-293 cells (Homo sapiens (Human))
Sequence (P35968 20-1356): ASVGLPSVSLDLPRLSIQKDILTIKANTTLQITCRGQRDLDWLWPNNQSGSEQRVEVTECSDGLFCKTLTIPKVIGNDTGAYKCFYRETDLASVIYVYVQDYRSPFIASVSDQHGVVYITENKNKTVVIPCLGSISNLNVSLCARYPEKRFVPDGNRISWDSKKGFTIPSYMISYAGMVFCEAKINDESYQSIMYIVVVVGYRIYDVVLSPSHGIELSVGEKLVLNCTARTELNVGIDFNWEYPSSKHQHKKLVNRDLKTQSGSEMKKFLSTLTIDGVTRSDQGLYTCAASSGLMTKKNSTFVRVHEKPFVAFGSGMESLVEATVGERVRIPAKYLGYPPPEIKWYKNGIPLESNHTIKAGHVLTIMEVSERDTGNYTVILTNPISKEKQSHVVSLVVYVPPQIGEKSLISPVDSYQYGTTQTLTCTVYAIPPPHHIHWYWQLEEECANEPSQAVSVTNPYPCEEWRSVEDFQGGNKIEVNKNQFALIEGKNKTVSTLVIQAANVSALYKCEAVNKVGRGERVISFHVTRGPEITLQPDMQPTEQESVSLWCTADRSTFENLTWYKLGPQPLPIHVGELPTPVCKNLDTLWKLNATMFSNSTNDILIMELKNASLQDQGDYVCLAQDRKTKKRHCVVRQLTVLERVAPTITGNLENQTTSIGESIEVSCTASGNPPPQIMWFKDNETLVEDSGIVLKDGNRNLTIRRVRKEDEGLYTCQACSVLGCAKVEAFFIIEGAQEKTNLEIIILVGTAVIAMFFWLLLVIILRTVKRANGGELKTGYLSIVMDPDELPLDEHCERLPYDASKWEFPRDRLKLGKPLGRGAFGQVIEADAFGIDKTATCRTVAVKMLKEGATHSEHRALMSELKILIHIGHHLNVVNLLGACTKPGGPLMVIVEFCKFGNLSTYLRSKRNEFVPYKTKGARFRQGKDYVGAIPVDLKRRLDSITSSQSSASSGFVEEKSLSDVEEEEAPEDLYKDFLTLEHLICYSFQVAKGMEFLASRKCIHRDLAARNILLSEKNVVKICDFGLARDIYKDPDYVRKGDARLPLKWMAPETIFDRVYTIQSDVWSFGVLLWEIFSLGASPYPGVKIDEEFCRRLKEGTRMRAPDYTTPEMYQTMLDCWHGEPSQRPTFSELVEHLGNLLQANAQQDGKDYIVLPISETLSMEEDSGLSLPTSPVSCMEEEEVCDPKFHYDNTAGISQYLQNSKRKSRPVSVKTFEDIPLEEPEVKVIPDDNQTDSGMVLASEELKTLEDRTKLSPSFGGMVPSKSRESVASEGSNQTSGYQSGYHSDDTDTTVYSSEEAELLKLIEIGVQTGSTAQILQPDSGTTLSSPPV
assay-info: KDR Cell Assay (phospho-KDR in HEK-293 cells expressing inducible KDR)
Format: cell-based
details: pKDR Cell HEK 10% FBS IC50, HEK-293 cells expressing inducible KDR, VEGF stimulated, 10% FBS
Structures can show the parent of a compound that is named as a salt.
reported-property: pIC50
pIC50 here: minus log base 10 of the concentration, concentration in moles per litre.

Below, each entry is followed by its recorded pIC50 result.
INSERT INTO assay_data (compound, target_entity, measured_value) VALUES
  ('Cn1cc(-c2cc(-c3ccc(N4CCN(C(=O)[C@@H]5CCCO5)CC4)nc3)c3c(C#N)cnn3c2)cn1', 'human KDR protein in HEK-293 cells (Homo sapiens (Human))', 6.42),
  ('COCC(=O)N1CCN(c2ccc(-c3cc(-c4cnn(C)c4)cn4ncc(C#N)c34)cc2)CC1', 'human KDR protein in HEK-293 cells (Homo sapiens (Human))', 5.97),
  ('Cn1cc(-c2cc(-c3ccc(N4CCC(C)(C(=O)NCCC(F)(F)F)CC4)nc3)c3c(C#N)cnn3c2)cn1', 'human KDR protein in HEK-293 cells (Homo sapiens (Human))', 6.33),
  ('CC(C)C(=O)NC1CCN(c2ccc(-c3cc(-c4cnn(C)c4)cn4ncc(C#N)c34)cn2)CC1', 'human KDR protein in HEK-293 cells (Homo sapiens (Human))', 6.20),
  ('C[C@@H](NC(=O)C1CCN(c2ccc(-c3cc(-c4cnn(C)c4)cn4ncc(C#N)c34)cn2)CC1)C(F)(F)F', 'human KDR protein in HEK-293 cells (Homo sapiens (Human))', 6.29);

pIC50 lookup needed for Cn1cc(-c2cc(-c3ccc(N4CCN(C(=O)C[C@H](N)c5ccccc5)CC4)nc3)c3c(C#N)cnn3c2)cn1 [Example 23, dihydrochloride] , thanks.
7.34

Recorded pIC50 of Cn1cc(-c2cc(-c3ccc(N4CCNC5(CC5)C4)nc3)c3c(C#N)cnn3c2)cn1 [Example 167, dihydrochloride] , please.
6.11

---

target-entity: Kif5b-RET fusion protein in HEK-293 cells (Homo sapiens, UniProt P07949)
assay-info: cell-based
// values below are reported log10(IC50)
Please note: log10 values; quantity IC50; unit nM.

The examples below pair each entry with its known result.
INSERT INTO assay_data (compound, target_entity, reported_property, measured_value) VALUES
  ('COc1ccc(CN2CCN(c3ccc(-c4cc(-c5cnn(C)c5)cn5ncc(C)c45)cn3)CC2)cn1', 'Kif5b-RET fusion protein in HEK-293 cells (Homo sapiens, UniProt P07949)', 'log10(IC50)', 1.82),
  ('CC(C)OCCN1CCN(c2ccc(-c3cc(-c4cnn(C(F)F)c4)cn4ncc(C#N)c34)cn2)CC1', 'Kif5b-RET fusion protein in HEK-293 cells (Homo sapiens, UniProt P07949)', 'log10(IC50)', 1.12),
  ('COc1ccc(CN2CCN(c3ccc(-c4cc(-c5cnn(C)c5)cn5ncc(Cl)c45)cn3)CC2)cn1', 'Kif5b-RET fusion protein in HEK-293 cells (Homo sapiens, UniProt P07949)', 'log10(IC50)', 1.59),
  ('Cn1cc(-c2cc(-c3ccc(N4CCC(S(C)(=O)=O)CC4)nc3)c3c(C#N)cnn3c2)cn1', 'Kif5b-RET fusion protein in HEK-293 cells (Homo sapiens, UniProt P07949)', 'log10(IC50)', 0.69),
  ('CC(C)N(CCO)C(=O)C1CCN(c2ccc(-c3cc(-c4cnn(C)c4)cn4ncc(C#N)c34)cn2)CC1 [Example 561, 2,2,2-trifluoroacetate]', 'Kif5b-RET fusion protein in HEK-293 cells (Homo sapiens, UniProt P07949)', 'log10(IC50)', 1.57),
  ('CC(C)C(O)CN1CCN(c2ccc(-c3cc(-c4cnn(C)c4)cn4ncc(Cl)c34)cn2)CC1 (stereo not shown)', 'Kif5b-RET fusion protein in HEK-293 cells (Homo sapiens, UniProt P07949)', 'log10(IC50)', 2.26);

Next, consider the following compound.
Report log10(IC50) for COc1ccc(CN2CCN(c3ccc(-c4cc(-c5cnn(C)c5)cn5ncc(C#N)c45)cn3)CC2)nc1 tested on Kif5b-RET fusion protein in HEK-293 cells (Homo sapiens, UniProt P07949).
0.38

---

target-entity: human KDR protein in HEK-293 cells (Homo sapiens (Human))
assay-info: KDR Cell Assay (phospho-KDR in HEK-293 cells expressing inducible KDR)
Type: cell-based
details: pKDR Cell HEK 10% FBS IC50, HEK-293 cells expressing inducible KDR, VEGF stimulated
Consider the following compounds and their measured IC50 readings.
Give your result in µM as a bare value.

Study these solved cases before continuing.
INSERT INTO measurements (compound, reported_property, readout_unit, measured_value) VALUES
  ('COC1CCN(C(=O)N2CCN(c3ccc(-c4cc(-c5cnn(C)c5)cn5ncc(C#N)c45)cn3)CC2)CC1', 'IC50', 'µM', 1.83),
  ('Cn1cc(-c2cc(-c3ccc(N4CCC5(CCOC5)C4)nc3)c3c(C#N)cnn3c2)cn1 (stereo not shown) [Example 530, 2,2,2-trifluoroacetate]', 'IC50', 'µM', 1.54),
  ('CN1CCC2(CCCN(c3ccc(-c4cc(-c5cnn(C)c5)cn5ncc(C#N)c45)cn3)C2)CC1', 'IC50', 'µM', 1.03);

What value of IC50 has been recorded for this entry: COCCN(CCOC)C(=O)N1CCN(c2ccc(-c3cc(-c4cnn(C)c4)cn4ncc(C#N)c34)cn2)CC1
1.97

Quick one: IC50 for Cn1cc(-c2cc(-c3ccc(N4CCN(Cc5cncc(F)c5)CC4)nc3)c3c(C#N)cnn3c2)cn1 ?
1.37

Value lookup for IC50; key = CO[C@](C(=O)N1CCN(c2ccc(-c3cc(-c4cnn(C)c4)cn4ncc(C#N)c34)cn2)CC1)(c1ccccc1)C(F)(F)F
1.91

Looking for the measured IC50 of Cn1cc(-c2cc(-c3ccc(N4CCN(Cc5cccc(F)c5)CC4)nc3)c3c(C#N)cnn3c2)cn1 , can you help?
0.88

Field request: IC50 | item: Cn1cc(-c2cc(-c3ccc(N4CCN(C(=O)N5CC[C@@H](c6ccccc6)C5)CC4)nc3)c3c(C#N)cnn3c2)cn1
0.841

---

target-entity: Kif5b-RET fusion protein in HEK-293 cells (Homo sapiens, UniProt P07949)
assay-info: cell-based
details: read-out: KIF5B-RET pTYR1062 Cell IC50
Structures can show the parent of a compound that is named as a salt.
compounds and their reported pIC50
To interpret pIC50, take it as minus log10 of a concentration measured in moles per litre.

INSERT INTO results (compound, measured_value) VALUES
  ('CN(C)C(=O)CCN1CCN(c2ccc(-c3cc(-c4cnn(C)c4)cn4ncc(C#N)c34)cn2)CC1 [Example 146, trifluoroacetate]', 7.54),
  ('CN(C)CCC(=O)N1CCN(c2ccc(-c3cc(-c4cnn(C)c4)cn4ncc(C#N)c34)cn2)CC1 [Example 33, bis(2,2,2-trifluoroacetate)]', 6.51);

Next compound, please.
Hello, I am looking for reported pIC50 with Kif5b-RET fusion protein in HEK-293 cells (Homo sapiens, UniProt P07949) for N#Cc1cnn2cc(-c3cnn(C(F)F)c3)cc(-c3ccc(N4CCNCC4)nc3)c12 [Example 266, dihydrochloride] . Could you help?
6.79

---

target-entity: N-terminal GST tagged recombinant human RET cytoplasmic domain (aa 658-end), wild type RET kinase (Homo sapiens (Human), UniProt P07949)
Sequence (P07949 658-1114): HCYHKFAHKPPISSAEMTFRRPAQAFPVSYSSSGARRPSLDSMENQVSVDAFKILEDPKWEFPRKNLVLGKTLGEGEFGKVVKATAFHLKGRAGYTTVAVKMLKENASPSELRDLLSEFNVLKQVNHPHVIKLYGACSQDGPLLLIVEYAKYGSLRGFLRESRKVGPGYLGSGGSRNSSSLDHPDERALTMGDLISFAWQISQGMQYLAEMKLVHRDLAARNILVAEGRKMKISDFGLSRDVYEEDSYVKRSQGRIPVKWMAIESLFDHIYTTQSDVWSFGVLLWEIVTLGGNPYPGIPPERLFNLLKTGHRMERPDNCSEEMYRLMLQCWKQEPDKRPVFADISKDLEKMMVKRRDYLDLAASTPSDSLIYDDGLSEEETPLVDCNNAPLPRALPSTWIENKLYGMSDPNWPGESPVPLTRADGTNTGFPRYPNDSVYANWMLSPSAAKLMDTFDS
assay-info: RET Enzyme Assay (HTRF KinEASE-TK), wild type RET
Format: biochemical
details: wild type RET, 1 mM ATP
Structures can show the parent of a compound that is named as a salt.
Field: label. Allowed values: criterion met (IC50 < 10 nM) or criterion not met (IC50 >= 10 nM).

For orientation, consider the following solved cases.
INSERT INTO assay_data (compound, class_name) VALUES
  ('CC(C)NC(=O)[C@@H]1CCCN(c2ccc(-c3cc(-c4cnn(C)c4)cn4ncc(C#N)c34)cn2)C1 [Example 229]', 'criterion not met'),
  ('Cn1cc(-c2cc(-c3ccc(N4CCC(NC(=O)OC(C)(C)C)CC4)nc3)c3c(C#N)cnn3c2)cn1 [Example 176]', 'criterion met');

Strictly below 10 nM in IC50? COc1ccc(CN2CCN(c3ccc(-c4cc(-c5cnn(CCC(=O)N(C)C)c5)cn5ncc(C#N)c45)cn3)CC2)cn1 [Example 706]
criterion not met

Is the reported IC50 for COc1cccnc1CN1CCN(c2ccc(-c3cc(-c4cnn(C)c4)cn4ncc(C#N)c34)cn2)CC1 [Example 463, formate] strictly below 10 nM?
criterion met
